Molecular target: MOR23-1 (Mus musculus)
Type: cell-based
Conditions: read-out: Response normalized to the response of the same oocyte to 100 μM nonanoic acid
Answer NO if activation at 10 µM is under 20%, and YES if it is 20% or more.

[[record]]
compound = "CCCCCCC(=O)O [Heptanoic acid]"
studysystem = "MOR23-1 (Mus musculus)"
labelclass = "NO"

[[record]]
compound = "CCCCCCCC=O [Octanal]"
studysystem = "MOR23-1 (Mus musculus)"
labelclass = "YES"

[[record]]
compound = "CCCCCCCCO [Octanol]"
studysystem = "MOR23-1 (Mus musculus)"
labelclass = "YES"

[[record]]
compound = "O=C(O)CCCCCBr [6-Bromo-hexanoic acid, 6-bromohexanoic acid]"
studysystem = "MOR23-1 (Mus musculus)"
labelclass = "NO"

[[record]]
compound = "CCCCCCCCC(=O)O [Nonanoic acid]"
studysystem = "MOR23-1 (Mus musculus)"
labelclass = "NO"

[[record]]
compound = "O=C(O)CCCCCCCBr [8-Bromo-octanoic acid, 8-bromooctanoic acid]"
studysystem = "MOR23-1 (Mus musculus)"
labelclass = "NO"

[[record]]
compound = "CCCCCCCC(=O)O [Octanoic acid]"
studysystem = "MOR23-1 (Mus musculus)"
labelclass = "YES"


---

Measured activation, listed per entry for reference.
Target: MOR32-11 (Mus musculus)
Assay type: cell-based
Settings: read-out: Response normalized to the response of the same oocyte to 100 μM nonanoic acid
metricName: activation (%)

[[record]]
chemicalsmiles = "CCCCCCCCCCC=O"
metricname = "activation"
u = "%"
datavalue = 16

[[record]]
chemicalsmiles = "O=C(O)CCCCCCCCCC(=O)O"
metricname = "activation"
u = "%"
datavalue = 0

[[record]]
chemicalsmiles = "O=C(O)CCCCCCCCCCBr"
metricname = "activation"
u = "%"
datavalue = 27

[[record]]
chemicalsmiles = "CCCCCCCCC(=O)O"
metricname = "activation"
u = "%"
datavalue = 100

[[record]]
chemicalsmiles = "CCCCCCCC(=O)O"
metricname = "activation"
u = "%"
datavalue = 76

[[record]]
chemicalsmiles = "CCCCCCCCCC=O"
metricname = "activation"
u = "%"
datavalue = 23

[[record]]
chemicalsmiles = "O=C(O)CCCCCCCBr"
metricname = "activation"
u = "%"
datavalue = 0

[[record]]
chemicalsmiles = "CCCCCCCCCCCO"
metricname = "activation"
u = "%"
datavalue = 6

[[record]]
chemicalsmiles = "CCCCCCCCCCC(=O)O"
metricname = "activation"
u = "%"
datavalue = 98

[[record]]
chemicalsmiles = "O=C(O)CCCCCCCCCBr"
metricname = "activation"
u = "%"
datavalue = 60

[[record]]
chemicalsmiles = "CCCCCCCCO"
metricname = "activation"
u = "%"
datavalue = 0

[[record]]
chemicalsmiles = "CCCCCCCCCCCC=O"
metricname = "activation"
u = "%"
datavalue = 25

[[record]]
chemicalsmiles = "CCCCCCCC=O"
metricname = "activation"
u = "%"
datavalue = 22

[[record]]
chemicalsmiles = "CCCCCCC(=O)O"
metricname = "activation"
u = "%"
datavalue = 35

[[record]]
chemicalsmiles = "CCCCCCCCCC(=O)O"
metricname = "activation"
u = "%"
datavalue = 122

[[record]]
chemicalsmiles = "CCCCCCCCC=O"
metricname = "activation"
u = "%"
datavalue = 32

[[record]]
chemicalsmiles = "O=C(O)CCCCCBr"
metricname = "activation"
u = "%"
datavalue = 0

[[record]]
chemicalsmiles = "O=C(O)CCCCCCCCCCCBr"
metricname = "activation"
u = "%"
datavalue = 6


---

Biological target: MOR23-1 (Mus musculus)
Type: cell-based
Details: read-out: Response normalized to the response of the same oocyte to 100 μM nonanoic acid
metricName: activation (%)

[[record]]
chemicalsmiles = "CCCCCCCC=O"
u = "%"
datavalue = 198

[[record]]
chemicalsmiles = "CCCCCCCCCCCC=O"
u = "%"
datavalue = 0

[[record]]
chemicalsmiles = "O=C(O)CCCCCCCCCCBr"
u = "%"
datavalue = 0

[[record]]
chemicalsmiles = "O=C(O)CCCCCBr"
u = "%"
datavalue = 61

[[record]]
chemicalsmiles = "CCCCCCCCCCC=O"
u = "%"
datavalue = 0

[[record]]
chemicalsmiles = "CCCCCCCCCCCO"
u = "%"
datavalue = 0

[[record]]
chemicalsmiles = "CCCCCCCCC(=O)O"
u = "%"
datavalue = 100

[[record]]
chemicalsmiles = "CCCCCCCC(=O)O"
u = "%"
datavalue = 178

[[record]]
chemicalsmiles = "CCCCCCCCCCC(=O)O"
u = "%"
datavalue = 0

[[record]]
chemicalsmiles = "O=C(O)CCCCCCCBr"
u = "%"
datavalue = 32

[[record]]
chemicalsmiles = "CCCCCCC(=O)O"
u = "%"
datavalue = 64


---

Molecular target: MOR23-1 (Mus musculus)
Format: cell-based
Conditions: read-out: Response normalized to the response of the same oocyte to 100 μM nonanoic acid
Answer Not met if activation at 30 µM is under 40%, and Met if it is 40% or more.

[[record]]
chemicalsmiles = "CCCCCCCC=O"
studysystem = "MOR23-1 (Mus musculus)"
labelclass = "Met"

[[record]]
chemicalsmiles = "CCCCCCCCC(=O)O"
studysystem = "MOR23-1 (Mus musculus)"
labelclass = "Met"

[[record]]
chemicalsmiles = "O=C(O)CCCCCBr"
studysystem = "MOR23-1 (Mus musculus)"
labelclass = "Not met"

[[record]]
chemicalsmiles = "CCCCCCCCO"
studysystem = "MOR23-1 (Mus musculus)"
labelclass = "Met"

[[record]]
chemicalsmiles = "CCCCCCCC(=O)O"
studysystem = "MOR23-1 (Mus musculus)"
labelclass = "Met"

[[record]]
chemicalsmiles = "CCCCCCC(=O)O"
studysystem = "MOR23-1 (Mus musculus)"
labelclass = "Not met"

[[record]]
chemicalsmiles = "O=C(O)CCCCCCCBr"
studysystem = "MOR23-1 (Mus musculus)"
labelclass = "Met"


---

Measured activation at 30 µM, listed per entry for reference.
Biological target: MOR32-11 (Mus musculus, UniProt Q8VF06)
Sequence (Q8VF06 1-312): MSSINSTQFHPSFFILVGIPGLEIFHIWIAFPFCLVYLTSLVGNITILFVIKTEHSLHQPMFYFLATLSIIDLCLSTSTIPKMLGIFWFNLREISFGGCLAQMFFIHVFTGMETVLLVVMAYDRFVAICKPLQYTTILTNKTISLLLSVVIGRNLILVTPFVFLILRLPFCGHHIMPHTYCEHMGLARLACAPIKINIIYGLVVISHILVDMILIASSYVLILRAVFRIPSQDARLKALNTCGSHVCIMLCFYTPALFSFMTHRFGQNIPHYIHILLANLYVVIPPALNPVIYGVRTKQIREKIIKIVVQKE
Type: cell-based
Settings: read-out: Response normalized to the response of the same oocyte to 100 μM nonanoic acid
metricName: activation at 30 µM (%)

[[record]]
chemicalsmiles = "CCCCCCCC=O"
datavalue = 0

[[record]]
chemicalsmiles = "CCCCCCC(=O)O"
datavalue = 40

[[record]]
chemicalsmiles = "CCCCCCCCCC(=O)O"
datavalue = 0

[[record]]
chemicalsmiles = "CCCCCCCCCCCC(=O)O"
datavalue = 0

[[record]]
chemicalsmiles = "O=C(O)CCCCCCCCCCBr"
datavalue = 0

[[record]]
chemicalsmiles = "CCCCCCCCCCC=O"
datavalue = 0

[[record]]
chemicalsmiles = "CCCCCCCCC=O"
datavalue = 0

[[record]]
chemicalsmiles = "CCCCCCCCCCC(=O)O"
datavalue = 26

[[record]]
chemicalsmiles = "CCCCCCCCCC=O"
datavalue = 0

[[record]]
chemicalsmiles = "CCCCCCCC(=O)O"
datavalue = 83

[[record]]
chemicalsmiles = "O=C(O)CCCCCCCCCBr"
datavalue = 0

[[record]]
chemicalsmiles = "CCCCCCCCCCCC=O"
datavalue = 0

[[record]]
chemicalsmiles = "CCCCCCCCC(=O)O"
datavalue = 61


---

Target: MOR23-1 (Mus musculus, UniProt Q8VG01)
Assay type: cell-based
Settings: read-out: Response normalized to the response of the same oocyte to 100 μM nonanoic acid
metricName: activation at 3 µM

[[record]]
chemicalsmiles = "O=C(O)CCCCCBr"
metricname = "activation at 3 µM"
datavalue = "0%"

[[record]]
chemicalsmiles = "CCCCCCCC(=O)O"
metricname = "activation at 3 µM"
datavalue = "70%"

[[record]]
chemicalsmiles = "CCCCCCCC=O"
metricname = "activation at 3 µM"
datavalue = "35%"

[[record]]
chemicalsmiles = "CCCCCCCCC(=O)O"
metricname = "activation at 3 µM"
datavalue = "0%"

[[record]]
chemicalsmiles = "CCCCCCC(=O)O"
metricname = "activation at 3 µM"
datavalue = "0%"

[[record]]
chemicalsmiles = "O=C(O)CCCCCCCBr"
metricname = "activation at 3 µM"
datavalue = "0%"


---

Molecular target: MOR32-11 (Mus musculus, UniProt Q8VF06)
Type: cell-based
Conditions: read-out: Response normalized to the response of the same oocyte to 100 μM nonanoic acid
Measured activation at 10 µM, listed per entry for reference.
metricName: activation at 10 µM (%)

[[record]]
chemicalsmiles = "CCCCCCCCCCC(=O)O"
studysystem = "MOR32-11 (Mus musculus, UniProt Q8VF06)"
metricname = "activation at 10 µM"
datavalue = 0

[[record]]
chemicalsmiles = "CCCCCCCCCCCC=O"
studysystem = "MOR32-11 (Mus musculus, UniProt Q8VF06)"
metricname = "activation at 10 µM"
datavalue = 0

[[record]]
chemicalsmiles = "CCCCCCCCCCC=O"
studysystem = "MOR32-11 (Mus musculus, UniProt Q8VF06)"
metricname = "activation at 10 µM"
datavalue = 0

[[record]]
chemicalsmiles = "CCCCCCCCC(=O)O"
studysystem = "MOR32-11 (Mus musculus, UniProt Q8VF06)"
metricname = "activation at 10 µM"
datavalue = 25

[[record]]
chemicalsmiles = "O=C(O)CCCCCCCCCBr"
studysystem = "MOR32-11 (Mus musculus, UniProt Q8VF06)"
metricname = "activation at 10 µM"
datavalue = 0

[[record]]
chemicalsmiles = "CCCCCCCCCCCC(=O)O"
studysystem = "MOR32-11 (Mus musculus, UniProt Q8VF06)"
metricname = "activation at 10 µM"
datavalue = 0

[[record]]
chemicalsmiles = "CCCCCCCC(=O)O"
studysystem = "MOR32-11 (Mus musculus, UniProt Q8VF06)"
metricname = "activation at 10 µM"
datavalue = 27

[[record]]
chemicalsmiles = "CCCCCCCCCC(=O)O"
studysystem = "MOR32-11 (Mus musculus, UniProt Q8VF06)"
metricname = "activation at 10 µM"
datavalue = 13

[[record]]
chemicalsmiles = "CCCCCCCC=O"
studysystem = "MOR32-11 (Mus musculus, UniProt Q8VF06)"
metricname = "activation at 10 µM"
datavalue = 0

[[record]]
chemicalsmiles = "CCCCCCCCC=O"
studysystem = "MOR32-11 (Mus musculus, UniProt Q8VF06)"
metricname = "activation at 10 µM"
datavalue = 0

[[record]]
chemicalsmiles = "CCCCCCCCCC=O"
studysystem = "MOR32-11 (Mus musculus, UniProt Q8VF06)"
metricname = "activation at 10 µM"
datavalue = 0

[[record]]
chemicalsmiles = "O=C(O)CCCCCCCCCCBr"
studysystem = "MOR32-11 (Mus musculus, UniProt Q8VF06)"
metricname = "activation at 10 µM"
datavalue = 0

[[record]]
chemicalsmiles = "CCCCCCC(=O)O"
studysystem = "MOR32-11 (Mus musculus, UniProt Q8VF06)"
metricname = "activation at 10 µM"
datavalue = 13


The origin of these recorded values is paper PMC2670241.
